Data origin, for the record: PubChem BioAssay AID1918944

- Test system: 786-0 complex spheroid viability
- testProtocol: Anticancer human tumor 786-0 cell line growth inhibition;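 further: spheroids exposed to agents for seven days before readout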
- runParameters: curve of first compound; second compound 10 µM
pIC50: −log10 of the molar value.
Returns Met if the recorded pIC50 is greater than or equal to 6, and Not met otherwise.

compound: COc1cc(Nc2ncc3c(n2)-c2ccc(Cl)cc2C(c2c(F)cccc2OC)=NC3)ccc1C(=O)O + NC1CCC(NC2CC2c2ccccc2)CC1
targetUnderTest: 786-0 complex spheroid viability
classAssignment: Met
--
compound: CC(C)CC(NC(=O)C(Cc1ccccc1)NC(=O)c1cnccn1)B(O)O (configuration not stated) + NC1CCC(NC2CC2c2ccccc2)CC1
targetUnderTest: 786-0 complex spheroid viability
classAssignment: Met
--
compound: COc1ccc([C@@H](O)c2cc(-c3ncnc4cc(N5CCOCC5)ccc34)c(F)cc2Cl)nn1 + NC1CCC(NC2CC2c2ccccc2)CC1
targetUnderTest: 786-0 complex spheroid viability
classAssignment: Not met
--
compound: COc1cc(C2c3cc4c(cc3C(OC3OC5COC(C)OC5C(O)C3O)C3COC(=O)C23)OCO4)cc(OC)c1O (configuration not stated) + NC1CCC(NC2CC2c2ccccc2)CC1
targetUnderTest: 786-0 complex spheroid viability
classAssignment: Met
--
compound: CC1(C)CCC(CN2CCN(c3ccc(C(=O)NS(=O)(=O)c4ccc(NCC5CCOCC5)c([N+](=O)[O-])c4)c(Oc4cnc5[nH]ccc5c4)c3)CC2)=C(c2ccc(Cl)cc2)C1 + NC1CC1c1ccc(-c2cccc(O)c2)cc1
targetUnderTest: 786-0 complex spheroid viability
classAssignment: Not met
--
compound: O=C(C=Cn1cnc(-c2cc(C(F)(F)F)cc(C(F)(F)F)c2)n1)NNc1cnccn1 + NC1CCC(NC2CC2c2ccccc2)CC1
targetUnderTest: 786-0 complex spheroid viability
classAssignment: Met
--
compound: CC(C)c1c(-c2ccccc2)nc2c(C#N)c[nH]n2c1=O + NC1CC1c1ccc(-c2cccc(O)c2)cc1
targetUnderTest: 786-0 complex spheroid viability
classAssignment: Not met
--
compound: CC1(C)CCC(CN2CCN(c3ccc(C(=O)NS(=O)(=O)c4ccc(NCC5CCOCC5)c([N+](=O)[O-])c4)c(Oc4cnc5[nH]ccc5c4)c3)CC2)=C(c2ccc(Cl)cc2)C1 + NC1CCC(NC2CC2c2ccccc2)CC1
targetUnderTest: 786-0 complex spheroid viability
classAssignment: Not met
--
compound: CC(C)CC(NC(=O)CNC(=O)c1cc(Cl)ccc1Cl)B1OC(=O)CC(CC(=O)O)(C(=O)O)O1 (configuration not stated) + NC1CCC(NC2CC2c2ccccc2)CC1
targetUnderTest: 786-0 complex spheroid viability
classAssignment: Met
--
compound: Nc1ncn(C2CC(O)C(CO)S2)c(=O)n1 (configuration not stated) + NC1CCC(NC2CC2c2ccccc2)CC1
targetUnderTest: 786-0 complex spheroid viability
classAssignment: Met
--
compound: CC1COCCN1c1cc(C2(S(C)(=N)=O)CC2)nc(-c2ccnc3[nH]ccc23)n1 (configuration not stated) + NC1CCC(NC2CC2c2ccccc2)CC1
targetUnderTest: 786-0 complex spheroid viability
classAssignment: Met
--
compound: CC1COCCN1c1cc(-c2ccnn2C)c2ccnc(-c3ccn[nH]3)c2n1 (configuration not stated) + NC1CC1c1ccc(-c2cccc(O)c2)cc1
targetUnderTest: 786-0 complex spheroid viability
classAssignment: Met
--
compound: Nc1ccn(C2OC(CO)C(O)C2(F)F)c(=O)n1 (configuration not stated) + NC1CC1c1ccc(-c2cccc(O)c2)cc1
targetUnderTest: 786-0 complex spheroid viability
classAssignment: Met
--
compound: COc1cc(C2c3cc4c(cc3C(OC3OC5COC(C)OC5C(O)C3O)C3COC(=O)C23)OCO4)cc(OC)c1O (configuration not stated) + NC1CC1c1ccc(-c2cccc(O)c2)cc1
targetUnderTest: 786-0 complex spheroid viability
classAssignment: Met
--
compound: CC[C@@]1(O)C(=O)OCc2c1cc1n(c2=O)Cc2cc3c(CN(C)C)c(O)ccc3nc2-1 + NC1CC1c1ccc(-c2cccc(O)c2)cc1
targetUnderTest: 786-0 complex spheroid viability
classAssignment: Met
--
compound: CCN(c1cc(-c2ccc(CN3CCOCC3)cc2)cc(C(=O)NCc2c(C)cc(C)[nH]c2=O)c1C)C1CCOCC1 + NC1CCC(NC2CC2c2ccccc2)CC1
targetUnderTest: 786-0 complex spheroid viability
classAssignment: Not met
--
compound: O=C(C=Cc1cccc(S(=O)(=O)Nc2ccccc2)c1)NO + NC1CCC(NC2CC2c2ccccc2)CC1
targetUnderTest: 786-0 complex spheroid viability
classAssignment: Met
--
compound: O=C(C=Cn1cnc(-c2cc(C(F)(F)F)cc(C(F)(F)F)c2)n1)NNc1cnccn1 + NC1CC1c1ccc(-c2cccc(O)c2)cc1
targetUnderTest: 786-0 complex spheroid viability
classAssignment: Met
--
compound: NS(=O)(=O)OCC1CC(n2ccc3c(NC4CCc5ccccc54)ncnc32)CC1O (configuration not stated) + NC1CCC(NC2CC2c2ccccc2)CC1
targetUnderTest: 786-0 complex spheroid viability
classAssignment: Met
--
compound: CCN(c1cc(-c2ccc(CN3CCOCC3)cc2)cc(C(=O)NCc2c(C)cc(C)[nH]c2=O)c1C)C1CCOCC1 + NC1CC1c1ccc(-c2cccc(O)c2)cc1
targetUnderTest: 786-0 complex spheroid viability
classAssignment: Not met
--
compound: O=C(c1cc(Cc2n[nH]c(=O)c3ccccc23)ccc1F)N1CCN(C(=O)C2CC2)CC1 + NC1CC1c1ccc(-c2cccc(O)c2)cc1
targetUnderTest: 786-0 complex spheroid viability
classAssignment: Not met

====

- Test system: 786-0 complex spheroid viability
- testProtocol: Anticancer human tumor 786-0 cell line growth inhibition;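 further: spheroids exposed to agents for seven days before readout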
- runParameters: second compound 3.16 µM; first compound 10 µM; stronger effect = lower value
Quick reference for viability, T/C among some molecules
observationType: viability, T/C (%)

molecule: O=C(c1cc(Cc2n[nH]c(=O)c3ccccc23)ccc1F)N1CCN(C(=O)C2CC2)CC1 + NC1CC1c1ccc(-c2cccc(O)c2)cc1
measureUnit: %
observedResult: 68.4

molecule: COc1ccc([C@@H](O)c2cc(-c3ncnc4cc(N5CCOCC5)ccc34)c(F)cc2Cl)nn1 + NC1CC1c1ccc(-c2cccc(O)c2)cc1
measureUnit: %
observedResult: 38.4

molecule: CC(C)c1c(-c2ccccc2)nc2c(C#N)c[nH]n2c1=O + NC1CCC(NC2CC2c2ccccc2)CC1
measureUnit: %
observedResult: 103

molecule: CC1(C)CCC(CN2CCN(c3ccc(C(=O)NS(=O)(=O)c4ccc(NCC5CCOCC5)c([N+](=O)[O-])c4)c(Oc4cnc5[nH]ccc5c4)c3)CC2)=C(c2ccc(Cl)cc2)C1 + NC1CCC(NC2CC2c2ccccc2)CC1
measureUnit: %
observedResult: 47.4

molecule: CC(C)c1c(-c2ccccc2)nc2c(C#N)c[nH]n2c1=O + NC1CC1c1ccc(-c2cccc(O)c2)cc1
measureUnit: %
observedResult: 116

molecule: COc1ccc([C@@H](O)c2cc(-c3ncnc4cc(N5CCOCC5)ccc34)c(F)cc2Cl)nn1 + NC1CCC(NC2CC2c2ccccc2)CC1
measureUnit: %
observedResult: 43.4

molecule: O=C(c1cc(Cc2n[nH]c(=O)c3ccccc23)ccc1F)N1CCN(C(=O)C2CC2)CC1 + NC1CCC(NC2CC2c2ccccc2)CC1
measureUnit: %
observedResult: 57.3

molecule: CC1COCCN1c1cc(C2(S(C)(=N)=O)CC2)nc(-c2ccnc3[nH]ccc23)n1 (stereo not given) + NC1CCC(NC2CC2c2ccccc2)CC1
measureUnit: %
observedResult: 5.16

molecule: CC1(C)CCC(CN2CCN(c3ccc(C(=O)NS(=O)(=O)c4ccc(NCC5CCOCC5)c([N+](=O)[O-])c4)c(Oc4cnc5[nH]ccc5c4)c3)CC2)=C(c2ccc(Cl)cc2)C1 + NC1CC1c1ccc(-c2cccc(O)c2)cc1
measureUnit: %
observedResult: 57.3

molecule: CC1COCCN1c1cc(C2(S(C)(=N)=O)CC2)nc(-c2ccnc3[nH]ccc23)n1 (stereo not given) + NC1CC1c1ccc(-c2cccc(O)c2)cc1
measureUnit: %
observedResult: 14.6

====

Quick reference for viability, T/C among some compounds
- Tested on: 786-0 complex spheroid viability
- testProtocol: Anticancer human tumor 786-0 cell line growth inhibition;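 further: spheroids exposed to agents for seven days before readout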
- runParameters: second compound 0.316 µM; first compound 0.00949 µM; stronger effect = lower value

compound: Nc1ccccc1NC(=O)c1ccc(CNC(=O)OCc2cccnc2)cc1 + NC1CCC(NC2CC2c2ccccc2)CC1
measureUnit: %
viability, T/C: 123

compound: O=C(C=Cc1cccc(S(=O)(=O)Nc2ccccc2)c1)NO + NC1CCC(NC2CC2c2ccccc2)CC1
measureUnit: %
viability, T/C: 113

compound: NS(=O)(=O)OCC1CC(n2ccc3c(NC4CCc5ccccc54)ncnc32)CC1O (stereo not drawn) + NC1CC1c1ccc(-c2cccc(O)c2)cc1
measureUnit: %
viability, T/C: 104

compound: Nc1ccn(C2OC(CO)C(O)C2(F)F)c(=O)n1 (stereo not drawn) + NC1CCC(NC2CC2c2ccccc2)CC1
measureUnit: %
viability, T/C: 2.97

compound: CCc1c2c(nc3ccc(O)cc13)-c1cc3c(c(=O)n1C2)COC(=O)[C@]3(O)CC + NC1CCC(NC2CC2c2ccccc2)CC1
measureUnit: %
viability, T/C: 5.44

compound: COc1cc(C2c3cc4c(cc3C(OC3OC5COC(C)OC5C(O)C3O)C3COC(=O)C23)OCO4)cc(OC)c1O (stereo not drawn) + NC1CC1c1ccc(-c2cccc(O)c2)cc1
measureUnit: %
viability, T/C: 105

compound: CCN(c1cc(-c2ccc(CN3CCOCC3)cc2)cc(C(=O)NCc2c(C)cc(C)[nH]c2=O)c1C)C1CCOCC1 + NC1CCC(NC2CC2c2ccccc2)CC1
measureUnit: %
viability, T/C: 119

compound: Nc1ncn(C2CC(O)C(CO)S2)c(=O)n1 (stereo not drawn) + NC1CCC(NC2CC2c2ccccc2)CC1
measureUnit: %
viability, T/C: 130
